Target: muscarinic M2 receptors (Rattus norvegicus)
Sequence (P10980 whole entry): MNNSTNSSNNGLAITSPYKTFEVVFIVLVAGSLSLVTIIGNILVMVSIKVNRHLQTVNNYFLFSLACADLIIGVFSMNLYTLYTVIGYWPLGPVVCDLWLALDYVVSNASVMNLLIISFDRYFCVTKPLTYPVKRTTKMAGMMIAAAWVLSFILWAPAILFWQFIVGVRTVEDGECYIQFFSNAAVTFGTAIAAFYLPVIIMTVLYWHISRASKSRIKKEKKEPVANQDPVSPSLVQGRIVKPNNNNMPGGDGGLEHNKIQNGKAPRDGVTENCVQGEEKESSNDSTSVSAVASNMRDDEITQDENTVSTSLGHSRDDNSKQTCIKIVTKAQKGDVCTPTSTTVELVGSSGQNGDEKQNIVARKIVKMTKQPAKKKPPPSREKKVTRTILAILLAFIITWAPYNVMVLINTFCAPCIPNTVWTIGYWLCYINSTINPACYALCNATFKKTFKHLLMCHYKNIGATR
Test: biochemical
Type: binding, Wistar male rats
Assay readout: pKi
Remember the convention: pKi equals -log10 of concentration in molar.

Q: What measured pKi goes with Cl.O=C(Nc1ccccc1-c1ccccc1)OC1CN2CCC1CC2 (stereo not drawn) [Example 1, monohydrochloride] ?
A: 7.59

Q: Check Cl.O=C(Nc1ccccc1-c1ccccc1)OC12CCN(CC1)CC2 [Example 4, monohydrochloride] too.
A: 8.23

Q: Check C[N+]12CCC(CC1)C(OC(=O)Nc1ccccc1-c1ccccc1)C2.[I-] (stereo not drawn) [Example 3] too.
A: 7.84

###

Target: Muscarinic M3 receptor (Rattus norvegicus, UniProt P08483)
Construct: except that submandibular gland membranes were used and [^3H]-N-methylscopolamine was used as the labeled ligand; from tissue; host or cells: rat submandibular gland membranes (Wistar male rats, Nippon SLC)
Sequence (P08483 whole entry): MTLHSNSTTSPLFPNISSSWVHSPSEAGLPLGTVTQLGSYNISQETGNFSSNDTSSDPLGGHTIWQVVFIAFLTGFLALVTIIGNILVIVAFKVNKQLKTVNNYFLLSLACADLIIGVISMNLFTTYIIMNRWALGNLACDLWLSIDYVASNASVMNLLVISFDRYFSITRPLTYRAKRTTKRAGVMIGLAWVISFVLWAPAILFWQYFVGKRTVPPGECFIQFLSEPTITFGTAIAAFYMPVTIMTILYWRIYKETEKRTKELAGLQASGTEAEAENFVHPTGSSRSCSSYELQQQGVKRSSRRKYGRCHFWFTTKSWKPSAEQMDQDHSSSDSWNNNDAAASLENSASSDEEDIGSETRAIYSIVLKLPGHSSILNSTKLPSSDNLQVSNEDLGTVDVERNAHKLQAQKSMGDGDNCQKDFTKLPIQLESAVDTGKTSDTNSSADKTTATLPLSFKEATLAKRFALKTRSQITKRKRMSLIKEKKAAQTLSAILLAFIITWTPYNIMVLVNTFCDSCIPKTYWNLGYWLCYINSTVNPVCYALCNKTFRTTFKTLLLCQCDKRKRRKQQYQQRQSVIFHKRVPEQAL
Test: Muscarinic M3 receptor binding test (submandibular gland membranes, [3H]-N-methylscopolamine)
Parameters: species or system Wistar male rats
Listed molecules paired with reported pKi
Remember the convention: pKi equals -log10 of concentration in molar.

Molecule: C[N+]12CCC(CC1)C(OC(=O)Nc1ccccc1-c1ccccc1)C2.[I-] (stereo not drawn)
Subject of test: Muscarinic M3 receptor (Rattus norvegicus, UniProt P08483)
pKi: 9.25

Molecule: Cl.O=C(Nc1ccccc1-c1ccccc1)OC1CN2CCC1CC2 (stereo not drawn) [Example 1, monohydrochloride]
Subject of test: Muscarinic M3 receptor (Rattus norvegicus, UniProt P08483)
pKi: 9.03

Q: Form field - read-out: pKi; system: Muscarinic M3 receptor (Rattus norvegicus, UniProt P08483); submitted item: Cl.O=C(Nc1ccccc1-c1ccccc1)OC12CCN(CC1)CC2 [Example 4, monohydrochloride]
A: 9.41
